Source listed as patent US20260015333A1.

molecular target: Mfd (Salmonella typhimurium, UniProt Q8ZQ01)
Sequence (Q8ZQ01 entry or part of it): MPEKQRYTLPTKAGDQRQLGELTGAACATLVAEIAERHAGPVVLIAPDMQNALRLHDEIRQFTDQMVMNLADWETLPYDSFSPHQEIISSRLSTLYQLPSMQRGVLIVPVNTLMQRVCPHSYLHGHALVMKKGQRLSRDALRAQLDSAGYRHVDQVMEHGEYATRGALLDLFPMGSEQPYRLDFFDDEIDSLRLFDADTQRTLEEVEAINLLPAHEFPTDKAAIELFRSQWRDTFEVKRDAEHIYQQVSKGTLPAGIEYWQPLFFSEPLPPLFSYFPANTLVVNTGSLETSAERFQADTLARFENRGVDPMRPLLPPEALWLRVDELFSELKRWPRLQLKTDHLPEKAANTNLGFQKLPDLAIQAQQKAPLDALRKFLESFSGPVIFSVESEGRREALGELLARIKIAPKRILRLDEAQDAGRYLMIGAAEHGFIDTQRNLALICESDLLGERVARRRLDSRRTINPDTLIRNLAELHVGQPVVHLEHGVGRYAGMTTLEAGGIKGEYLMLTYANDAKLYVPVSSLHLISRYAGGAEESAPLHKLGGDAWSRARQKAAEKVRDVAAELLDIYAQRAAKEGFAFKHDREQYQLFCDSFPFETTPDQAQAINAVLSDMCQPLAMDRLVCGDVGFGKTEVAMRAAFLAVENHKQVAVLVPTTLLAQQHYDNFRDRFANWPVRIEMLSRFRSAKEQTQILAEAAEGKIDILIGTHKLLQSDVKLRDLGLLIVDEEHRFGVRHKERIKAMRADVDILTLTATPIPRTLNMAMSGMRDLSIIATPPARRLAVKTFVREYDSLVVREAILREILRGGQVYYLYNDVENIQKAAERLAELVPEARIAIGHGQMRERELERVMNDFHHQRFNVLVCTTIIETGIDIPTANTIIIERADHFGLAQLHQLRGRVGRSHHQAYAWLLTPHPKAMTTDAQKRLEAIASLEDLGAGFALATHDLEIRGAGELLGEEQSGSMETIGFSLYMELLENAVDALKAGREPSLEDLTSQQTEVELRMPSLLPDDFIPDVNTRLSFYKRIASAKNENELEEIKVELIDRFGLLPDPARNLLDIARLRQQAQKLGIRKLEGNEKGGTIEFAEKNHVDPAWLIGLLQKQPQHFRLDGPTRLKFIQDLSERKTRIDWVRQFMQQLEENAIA
Outcome measure: pKd
Keep it numeric: pKd is minus log10 of the concentration in mol/L.

// query Recorded pKd for Cc1cc(Br)ccc1-c1ccc(CNCCCN(C)C)o1 with Mfd (Salmonella typhimurium, UniProt Q8ZQ01), please?
// result 5.37
